target: human kisspeptin receptor (Homo sapiens (Human), UniProt Q969F8); assay: Human KISS1R binding assay (membrane competition binding); details: 90 min at room temperature; competition with 0.2 nM [125I]-metastin (45-54); Flp-In T-Rex 293 kisspeptin membranes; metal complexes nonradioactive Ga, In, Lu; read-out: hKiSSR Binding Ki (90 min)
Sequence (Q969F8 whole entry): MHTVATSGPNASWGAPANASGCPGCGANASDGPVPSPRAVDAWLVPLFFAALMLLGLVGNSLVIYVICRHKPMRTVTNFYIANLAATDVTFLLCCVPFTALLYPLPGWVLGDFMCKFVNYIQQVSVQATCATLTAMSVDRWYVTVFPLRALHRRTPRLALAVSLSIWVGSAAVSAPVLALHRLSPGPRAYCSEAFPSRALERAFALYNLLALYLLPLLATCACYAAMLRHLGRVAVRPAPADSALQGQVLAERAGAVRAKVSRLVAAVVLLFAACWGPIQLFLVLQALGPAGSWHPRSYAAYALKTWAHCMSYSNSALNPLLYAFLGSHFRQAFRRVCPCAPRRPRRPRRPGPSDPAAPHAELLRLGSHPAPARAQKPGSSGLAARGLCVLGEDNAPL
pKi: −log10 of the molar value. Square brackets hold non-standard residues; d marks the D form. Peptide text beside a SMILES is read from it. * marks the point of attachment. DOTA = O=C(O)CN1CCN(CC(=O)O)CCN(CC(=O)*)CCN(CC(=O)O)CC1; Gly(N-(3-F-4-Me-benzyl)) = Cc1ccc(CNCC(=O)*)cc1F; Propanoyl(3-(MeO(CH2CH2O)2)) = COCCOCCOCCC(=O)*; Api(1-amidino) = N=C(N)N1CCC(N)(C(=O)O)CC1; Hydrocinnamoyl(4-Me) = Cc1ccc(CCC(=O)*)cc1; Phe(4-CN) = N#Cc1ccc(C[C@H](N)C(=O)O)cc1; 4Pal = N[C@@H](Cc1ccncc1)C(=O)O; Api = NC1(C(=O)O)CCNCC1; PEG2 = NCCOCCOCCC(=O)O; azaGly = NNC(=O)O
PARAMETER_MEASURED: pKi

COCCOCCOCCC(=O)N[C@@H](CCCCNC(=O)CN1CCN(CC(=O)O)CCN(CC(=O)O)CCN(CC(=O)O)CC1)C(=O)N[C@@H](CC(N)=O)C(=O)N[C@H](C(=O)N[C@@H](Cc1ccccc1)C(=O)NNC(=O)N[C@@H](CC(C)C)C(=O)NC1(C(=O)N[C@@H](Cc2ccncc2)C(N)=O)CCN(C(=O)CNCc2ccc(C)c(F)c2)CC1)[C@@H](C)O [Compound 255] ({Propanoyl(3-(MeO(CH2CH2O)2))}-K(DOTA)NTF[azaGly]L[Api](Gly(N-(3-F-4-Me-benzyl)))[4Pal]-NH2) = > 8.00

Shift focus to the following entry.
Note down pKi recorded for Cc1ccc(CCC(=O)NCCOCCOCCC(=O)N[C@H](Cc2ccc(O)cc2)C(=O)N[C@@H](CCCCNC(=O)CN2CCN(CC(=O)O)CCN(CC(=O)O)CCN(CC(=O)O)CC2)C(=O)N[C@@H](CC(N)=O)C(=O)N[C@H](C(=O)N[C@@H](Cc2ccccc2)C(=O)NNC(=O)N[C@@H](CC(C)C)C(=O)NC2(C(=O)N[C@@H](Cc3ccc(C#N)cc3)C(N)=O)CCN(C(=N)N)CC2)[C@@H](C)O)cc1 [Compound 333] ({Hydrocinnamoyl(4-Me)-PEG2}-[dY]K(DOTA)NTF[azaGly]L[Api(1-amidino)][Phe(4-CN)]-NH2) > 8.00

The reported measurements were obtained from patent US20250312499A1.
